- experimental.system: T1, HLA-DP DPB1*0401 (human)
- T1 chain 1: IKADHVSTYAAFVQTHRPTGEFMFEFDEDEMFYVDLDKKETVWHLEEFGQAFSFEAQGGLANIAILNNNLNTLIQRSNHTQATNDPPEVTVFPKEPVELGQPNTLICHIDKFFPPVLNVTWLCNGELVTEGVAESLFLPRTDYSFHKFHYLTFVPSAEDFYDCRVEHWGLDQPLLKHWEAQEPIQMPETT
- T1 chain 2: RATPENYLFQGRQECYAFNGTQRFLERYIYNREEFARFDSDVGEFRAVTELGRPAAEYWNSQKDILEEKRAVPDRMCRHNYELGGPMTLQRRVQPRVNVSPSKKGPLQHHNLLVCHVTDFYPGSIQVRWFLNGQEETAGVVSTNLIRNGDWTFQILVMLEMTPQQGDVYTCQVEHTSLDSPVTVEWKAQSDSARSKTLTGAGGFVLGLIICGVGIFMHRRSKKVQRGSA
- assay.summary: inhibition of radiolabeled peptide binding to purified HLA-DP
measured.property: IC50 (µM)
Numbers only, in µM.

Quick note, IC50 for EGTVDFIFGEARSLY [Sal k 1 1 peptide 191-205, EGTVDFIFGEARSLY (Peptide ID 3324.1590)] landed at 2.04
